Test system: Enterococcus faecium
Test: Antibacterial activity against Enterococcus faecium 36711 assessed as inhibition of bacterial growth incubated for 18 hrs by broth microdilution method
Format: functional
measured.parameter: MIC

[
  {
    "molecule": "CCCc1c(O)c(Oc2c(Cl)c(O)c(Cl)c3c2C(=O)O[C@H](C)C3)cc(OC)c1Cl",
    "measured.parameter": "MIC",
    "experimental.value": "16 µg/mL"
  },
  {
    "molecule": "CCCc1c(Cl)c(OC)c(Cl)c2c1Oc1c(Cl)c(O)c(Cl)c(CCC)c1C(=O)O2",
    "measured.parameter": "MIC",
    "experimental.value": "2 µg/mL"
  },
  {
    "molecule": "CCCc1c(Cl)c(O)cc2c1Oc1cc(O)c(Cl)c(CCC)c1C(=O)O2",
    "measured.parameter": "MIC",
    "experimental.value": "16 µg/mL"
  },
  {
    "molecule": "CCCCC/C=C1/C(=O)C(CC=C(C)C)=C(C)C1O (centres undefined)",
    "measured.parameter": "MIC",
    "experimental.value": "> 128 µg/mL"
  },
  {
    "molecule": "CCCc1c(O)c(Oc2c(Cl)c(O)c(Cl)c(CCC)c2C(=O)OC)c(Cl)c(OC)c1Cl",
    "measured.parameter": "MIC",
    "experimental.value": "8 µg/mL"
  },
  {
    "molecule": "CCCc1cc(Oc2c(O)c(Cl)c(O)c(Cl)c2CCC)c(Cl)c(OC)c1Cl",
    "measured.parameter": "MIC",
    "experimental.value": "2 µg/mL"
  },
  {
    "molecule": "CCCc1c(Cl)c(OC)cc2c1Oc1c(Cl)c(O)c(Cl)c(CCC)c1C(=O)O2",
    "measured.parameter": "MIC",
    "experimental.value": "2 µg/mL"
  },
  {
    "molecule": "CCCc1c(Cl)c(OC)c(Cl)c2c1OC(=O)c1c(CCC)c(Cl)c(O)c(Cl)c1O2",
    "measured.parameter": "MIC",
    "experimental.value": "4 µg/mL"
  },
  {
    "molecule": "CN[C@H](CC(C)C)C(=O)N[C@H]1C(=O)N[C@@H](CC(N)=O)C(=O)N[C@H]2C(=O)N[C@H]3C(=O)N[C@H](C(=O)N[C@H](C(=O)O)c4cc(O)cc(O)c4-c4cc3ccc4O)[C@H](O)c3ccc(c(Cl)c3)Oc3cc2cc(c3O[C@@H]2O[C@H](CO)[C@@H](O)[C@H](O)[C@H]2O[C@H]2C[C@](C)(N)[C@H](O)[C@H](C)O2)Oc2ccc(cc2Cl)[C@H]1O",
    "measured.parameter": "MIC",
    "experimental.value": "> 64 µg/mL"
  }
]

From: ChEMBL document CHEMBL5252555
